koff listing for selected binders.
# assayTarget: T1, human recombinant IL-5 protein with a histidine tag at carboxyl terminal (human, UniProt P05113 20-134)
# T1 construct: range 20-134; Expressed in 293F cells; also called hrIL-5-cHis; human IL-5 protein; not shown: histidine tag at carboxyl terminal
# experimentalDetails: BLI (Octet 96), binding molecule on sensor, IL-5 antigen 200 nM and 2-fold dilutions
The answer is to be given in s⁻¹; state only the numeric part.

Known results for binders:
binder	koff [s⁻¹]
Fc fusion protein of anti-IL-5 single-domain antibody 1B3 (Fc fusion, not shown: a dimerising Fc or GST, Vector RJK-V4-hFC; Embodiments name a human IgG4 Fc; also called clone 1B3) chain (part 1 of 2): QVQLVESGGGSVQAGGSLRLSCAASGITASTSCMGWFRQSPGKEREGSLATIYDGSTSYADSVKGRFTISVDNAKNILYLQMNNLKPEDTAMYYCAAAKYCMFWSHPSYWGQGTQVTVSS chain (part 2 of 2): HHHHHH	0.000132
Fc fusion protein of anti-IL-5 single-domain antibody 2B3 (Fc fusion, not shown: a dimerising Fc or GST, Vector RJK-V4-hFC; also called clone 2B3) chain (part 1 of 2): QVQLVESGGGSVQAGGSLRLSCAASGNTFSFSTYCMGWFRQSPGKEREGSLATIYDGSTAYAGSVKGRFTISVDNAKNILYLQMNNLKPEDTAMYYCAAAKYCMFWSDPSYWGQGTQVTVSS chain (part 2 of 2): HHHHHH	0.000295
humanized Fc-fused single-domain antibody 1B3-V2 (Fc fusion, not shown: a dimerising Fc or GST, Humanized variant of 1B3; vector RJK-V4-hFC) chain (part 1 of 2): QVQLVESGGGSVQAGGSLRLSCAASGITASTSCMGWFRQSPGKEREGSLATIYDASTSYADSVKGRFTISRDNSKNILYLQMNNLRAEDTAVYYCAAARYCMFWSHPSYWGQGTQVTVSS chain (part 2 of 2): HHHHHH	0.000184

Ask | Query (binder): humanized Fc-fused single-domain antibody 2B3-V2 (Fc fusion, not shown: a dimerising Fc or GST, Humanized variant of 2B3; vector RJK-V4-hFC) chain (part 1 of 2): QVQLVESGGGSVQAGGSLRLSCAASGNTFSFSTYCMGWFRQSPGKEREGSLATIYDASTAYAGSVKGRFTISRDNSKNILYLQMNNLRAEDTAVYYCAAARYCMFWSHPSYWGQGTQVTVSS chain (part 2 of 2): HHHHHH ; field requested: koff
Reply | 0.000406
